- Target: HLA-B*27:03
- Protocol: IEDB peptide-MHC binding, purified MHC/competitive/fluorescence; filed as Kd, often an IC50 or EC50 that approximates it; bounds were set here for any values at or beyond the usual limits of such assays
- Conditions used: source organism: Araucaria virus
pKd: −log10 of the molar value.

[
  {
    "Macromolecule sequence": "AFMATNKAY",
    "pKd": "≤ 4.70"
  }
]

====

- Target: HLA-B*57:01
- Protocol: IEDB peptide-MHC binding, purified MHC/direct/fluorescence; filed as Kd, often an IC50 or EC50 that approximates it; bounds were set here for any values at or beyond the usual limits of such assays
- Conditions used: source organism: Brucella melitensis
pKd: −log10 of the molar value.

[
  {
    "Macromolecule sequence": "IAASNLEQF",
    "Target": "HLA-B*57:01",
    "pKd": 6.69
  }
]

====

- Target: HLA-A*31:01
- Protocol: IEDB peptide-MHC binding, purified MHC/competitive/radioactivity; filed as Kd, often an IC50 or EC50 that approximates it; bounds were set here for any values at or beyond the usual limits of such assays
- Conditions used: source organism: Vaccinia virus Copenhagen
pKd: −log10 of the molar value.

[
  {
    "Macromolecule sequence": "NTIVFGIYK",
    "pKd": "≤ 4.48"
  }
]

====

- Target: HLA-A*31:01
- Protocol: IEDB peptide-MHC binding, purified MHC/competitive/fluorescence; filed as Kd, often an IC50 or EC50 that approximates it; bounds were set here for any values at or beyond the usual limits of such assays
- Conditions used: source organism: Encephalitozoon cuniculi GB-M1
pKd: −log10 of the molar value.
Reported metric: pKd

[
  {
    "Macromolecule sequence": "CVNDGGLFY",
    "Reported metric": "pKd",
    "Readout value": 6.16
  }
]

====

- Target: HLA-B*27:05
- Protocol: IEDB peptide-MHC binding, purified MHC/competitive/fluorescence; filed as Kd, often an IC50 or EC50 that approximates it; bounds were set here for any values at or beyond the usual limits of such assays
- Conditions used: source organism: Influenza A virus (A/Waikato/7/2000(H3N2))
Reported metric: Kd

[
  {
    "Macromolecule sequence": "YRTLLMNEL",
    "Target": "HLA-B*27:05",
    "Reported metric": "Kd",
    "Readout value": "53.9 nM"
  }
]

====

- Target: HLA-A*23:01
- Protocol: IEDB peptide-MHC binding, purified MHC/competitive/radioactivity; filed as Kd, often an IC50 or EC50 that approximates it; bounds were set here for any values at or beyond the usual limits of such assays
- Conditions used: source organism: Lymphocytic choriomeningitis virus (strain Armstrong)
pKd: −log10 of the molar value.
Below, each of the sequences is paired with its reported pKd value.
Reported metric: pKd

[
  {
    "Macromolecule sequence": "PMMCPFLFL",
    "Reported metric": "pKd",
    "Readout value": 6.66
  },
  {
    "Macromolecule sequence": "SFYADPKRFF",
    "Reported metric": "pKd",
    "Readout value": 6.90
  }
]

====

- Target: HLA-A*01:01
- Protocol: IEDB peptide-MHC binding, purified MHC/competitive/fluorescence; filed as Kd, often an IC50 or EC50 that approximates it; bounds were set here for any values at or beyond the usual limits of such assays
- Conditions used: source organism: Escherichia coli O139:H28 str. E24377A
Reported metric: Kd

[
  {
    "Macromolecule sequence": "FTDPEIVAE",
    "Readout value": "≥ 20 µM"
  }
]
